tested_system: 14-3-3σ (Homo sapiens)
Construct: The 14-3-3 σ isoform (full-length for mass spectrometry and fluorescence anisotropy assays, ΔC for crystallography); made in house; host or cells: E. coli Rosetta 2(DE3)pLysS, pPROEX HTb vector
Sequence (P31947 1-248): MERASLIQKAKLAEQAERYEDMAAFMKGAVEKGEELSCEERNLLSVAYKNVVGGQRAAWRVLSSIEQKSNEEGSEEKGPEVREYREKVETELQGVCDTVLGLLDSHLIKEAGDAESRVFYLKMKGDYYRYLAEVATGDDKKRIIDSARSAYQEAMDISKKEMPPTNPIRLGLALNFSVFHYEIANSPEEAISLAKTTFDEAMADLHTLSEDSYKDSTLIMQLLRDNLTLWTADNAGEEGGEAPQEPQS
assay_notes: Mass spectrometry dose response, compound binding to 14-3-3σ in the absence of peptide (apo)
condition_set: 100 nM compound, 100 nM 14-3-3σ, 16h
Text: Two orthogonal assays were developed for screening. For the primary assay, mass spectrometry (MS) was used to monitor the formation of the covalent bond between the compound and the native cysteine (Cys38 on 14-3-3σ) (Figure 1D). […] As a secondary assay, fluorescence anisotropy (FA) was used. […]
Recorded measurements of Percentage (%) bound of compound to 14-3-3σ, APO 16h, one per entry

* O=C(CCl)NCC1CCN(C(=O)C2(Oc3ccc(Cl)cc3)CC2)CC1 | 0%
* Cl.NC1CCC(Oc2ccccc2)(C(=O)N2CCC(CNC(=O)CCl)CC2)CC1 (stereo not drawn) | 2.0%
* O=C(CCl)N1CCC2(CC1)CC(CNC(=O)C1(Nc3ccc(Cl)cc3)CCOCC1)C2 | 10.6%
* O=C(CCl)NCCC1CCN(C(=O)C2(Nc3ccc(Cl)cc3)CCOCC2)CC1 | 0%
* O=C(CCl)NCCCC1CCN(C(=O)C2(Nc3ccc(Cl)cc3)CCNCC2)CC1 | 7.8%

Now look at this one.
Q: Consider the compound shown here: O=C(CCl)NCC1CCN(C(=O)C2(Oc3ccc(Cl)cc3)CCCCC2)CC1 What is its recorded Percentage (%) bound of compound to 14-3-3σ, APO 16h?
A: 0.8%

* * *

tested_system: 14-3-3σ (Homo sapiens)
Construct: The 14-3-3 σ isoform (full-length for mass spectrometry and fluorescence anisotropy assays, ΔC for crystallography); made in house; host or cells: E. coli Rosetta 2(DE3)pLysS, pPROEX HTb vector
assay_notes: Mass spectrometry dose response, compound binding to 14-3-3σ in the absence of peptide (apo)
condition_set: 100 nM compound, 100 nM 14-3-3σ, 16h
Recorded measurements of Percentage (%) bound of compound to 14-3-3σ, APO 16h, one per entry
Report as a plain number; the unit % is understood.

Q: Consider the molecule shown here: O=C(CCl)N1CCC2(CC1)CN(C(=O)C1(Nc3ccc(Cl)cc3)CCOCC1)C2 [compound 161] What is its recorded Percentage (%) bound of compound to 14-3-3σ, APO 16h?
A: 0.5

Q: And what about the molecule O=C(CCl)NCC1CCN(C(=O)C2(Nc3ccc(Cl)cc3)CCC(F)(F)CC2)CC1 [compound 125] ?
A: 2.1

Q: And what about the molecule O=C(CCl)NCC1CCN(C(=O)C2(Oc3ccc(Cl)cc3)CCCC2)CC1 [compound 117] ?
A: 0.8

Q: And what about the molecule O=C(CCl)NCC1CC2(CCN(C(=O)C3(Nc4ccc(Cl)cc4)CCOCC3)CC2)C1 [compound 174] ?
A: 1.5

Hello, the source for this data is paper PMC10515640, in case you need it.
